Values were extracted from ChEMBL document CHEMBL5724914.

details: human gut metagenome, 24 h, 2 µM; further: call rule not given here

molecule: CN1C(C(=O)Nc2ccccn2)=C(O)c2sccc2S1(=O)=O
Bacterial Biotransformation: Compound NOT metabolized

molecule: NC(CO)(CO)CO.O=C(c1ccccc1)c1ccc2n1CCC2C(=O)O (stereo not given)
Bacterial Biotransformation: Compound metabolized

molecule: CC(C)NCC(O)COc1ccc(COCCOC(C)C)cc1.CC(C)NCC(O)COc1ccc(COCCOC(C)C)cc1.O=C(O)/C=C/C(=O)O (stereo not given) [BISOPROLOL FUMARATE]
Bacterial Biotransformation: Compound metabolized

molecule: Cc1ccc(/C(=C\CN2CCCC2)c2ccccn2)cc1
Bacterial Biotransformation: Compound NOT metabolized

molecule: COc1ccc(CCN(C)CCCC(C#N)(c2ccc(OC)c(OC)c2)C(C)C)cc1OC (stereo not given)
Bacterial Biotransformation: Compound metabolized

molecule: O=C(O)COCCN1CCN(C(c2ccccc2)c2ccc(Cl)cc2)CC1 (stereo not given)
Bacterial Biotransformation: Compound metabolized

molecule: CN1CCN(C(=O)O[C@H]2c3nccnc3C(=O)N2c2ccc(Cl)cn2)CC1
Bacterial Biotransformation: Compound NOT metabolized

molecule: CC(C)(Oc1ccc(CCNC(=O)c2ccc(Cl)cc2)cc1)C(=O)O [BEZAFIBRATE]
Bacterial Biotransformation: Compound metabolized

molecule: CC(C)(C(=O)O)c1ccc(C(O)CCCN2CCC(C(O)(c3ccccc3)c3ccccc3)CC2)cc1 (stereo not given) [FEXOFENADINE]
Bacterial Biotransformation: Compound NOT metabolized

molecule: CC(CN1c2ccccc2Sc2ccccc21)N(C)C (stereo not given)
Bacterial Biotransformation: Compound NOT metabolized

molecule: CCCC1O[C@@H]2C[C@H]3[C@@H]4CCC5=CC(=O)C=C[C@]5(C)[C@H]4[C@@H](O)C[C@]3(C)[C@]2(C(=O)CO)O1 (stereo not given in full) [BUDESONIDE]
Bacterial Biotransformation: Compound metabolized

molecule: CCCCc1nc(Cl)c(CO)n1Cc1ccc(-c2ccccc2-c2nn[nH]n2)cc1
Bacterial Biotransformation: Compound metabolized

molecule: CNS(=O)(=O)Cc1ccc2[nH]cc(CCN(C)C)c2c1.O=C(O)CCC(=O)O [SUMATRIPTAN SUCCINATE]
Bacterial Biotransformation: Compound NOT metabolized

molecule: O=C1NCC2(CCN(CCc3ccccc3)CC2)O1 [FENSPIRIDE]
Bacterial Biotransformation: Compound NOT metabolized

molecule: CN(C)C(=O)C(CCN1CCC(O)(c2ccc(Cl)cc2)CC1)(c1ccccc1)c1ccccc1 [LOPERAMIDE]
Bacterial Biotransformation: Compound metabolized

molecule: CCC(=O)NCC[C@@H]1CCc2ccc3c(c21)CCO3
Bacterial Biotransformation: Compound metabolized

molecule: Nc1nc2ccc(OC(F)(F)F)cc2s1
Bacterial Biotransformation: Compound NOT metabolized

molecule: CC(=O)O[C@]1(C(C)=O)CC[C@H]2[C@@H]3C=C(Cl)C4=CC(=O)[C@@H]5C[C@@H]5[C@]4(C)[C@H]3CC[C@@]21C [CYPROTERONE ACETATE]
Bacterial Biotransformation: Compound metabolized

molecule: O=C(NCc1ccccc1)OCCO [BURAMATE]
Bacterial Biotransformation: Compound NOT metabolized

molecule: O=C1[C@H](CC[C@H](O)c2ccc(F)cc2)[C@@H](c2ccc(O)cc2)N1c1ccc(F)cc1
Bacterial Biotransformation: Compound NOT metabolized

molecule: CCN(CC)CCNC(C(=O)OCCC(C)C)c1ccccc1.Cl.Cl (stereo not given)
Bacterial Biotransformation: Compound metabolized

molecule: COc1c(C)c2c(c(O)c1C/C=C(\C)CCC(=O)OCCN1CCOCC1)C(=O)OC2 [MYCOPHENOLATE MOFETIL]
Bacterial Biotransformation: Compound metabolized

molecule: CNC(=C[N+](=O)[O-])NCCSCc1ccc(CN(C)C)o1
Bacterial Biotransformation: Compound NOT metabolized

molecule: OC(CCN1CCCCC1)(c1ccccc1)C1CC2C=CC1C2 (stereo not given)
Bacterial Biotransformation: Compound NOT metabolized

molecule: COc1ccccc1OCC(O)CN1CCN(CC(=O)Nc2c(C)cccc2C)CC1 (stereo not given)
Bacterial Biotransformation: Compound NOT metabolized

molecule: CC(C)NCC(O)COc1ccc(CCOCC2CC2)cc1 (stereo not given)
Bacterial Biotransformation: Compound NOT metabolized

molecule: CCN(CC)CCOC(=O)C(Cc1cccc2ccccc12)CC1CCCO1.O=C(O)C(=O)O (stereo not given) [NAFRONYL OXALATE]
Bacterial Biotransformation: Compound metabolized

molecule: CCCc1nc2c(C)cc(-c3nc4ccccc4n3C)cc2n1Cc1ccc(-c2ccccc2C(=O)O)cc1
Bacterial Biotransformation: Compound metabolized

molecule: O=P(O)(O)O.c1ccc(CN(CC2=NCCN2)c2ccccc2)cc1 [ANTAZOLINE PHOSPHATE]
Bacterial Biotransformation: Compound NOT metabolized

molecule: CN1C[C@H](C(=O)N[C@]2(C)O[C@@]3(O)[C@@H]4CCCN4C(=O)[C@H](Cc4ccccc4)N3C2=O)C=C2c3cccc4[nH]cc(c34)C[C@H]21.CN1C[C@H](C(=O)N[C@]2(C)O[C@@]3(O)[C@@H]4CCCN4C(=O)[C@H](Cc4ccccc4)N3C2=O)C=C2c3cccc4[nH]cc(c34)C[C@H]21.O=C(O)C(O)C(O)C(=O)O [ERGOTAMINE TARTRATE]
Bacterial Biotransformation: Compound NOT metabolized

molecule: Cc1ccccc1N1C(=O)c2cc(S(N)(=O)=O)c(Cl)cc2NC1C (stereo not given)
Bacterial Biotransformation: Compound NOT metabolized

molecule: COc1cc2nc(N3CCN(C(=O)c4ccco4)CC3)nc(N)c2cc1OC
Bacterial Biotransformation: Compound NOT metabolized

molecule: COc1ccc2[nH]c([S+]([O-])Cc3ncc(C)c(OC)c3C)nc2c1 (stereo not given)
Bacterial Biotransformation: Compound metabolized

molecule: Cc1ccnc2c1NC(=O)c1cccnc1N2C1CC1
Bacterial Biotransformation: Compound NOT metabolized

molecule: Cc1ccc(S(=O)(=O)NC(=O)NN2CC3CCCC3C2)cc1 (stereo not given) [GLICLAZIDE]
Bacterial Biotransformation: Compound metabolized
